// provenance: PubChem BioAssay (NCI)

# Test system: HL-60(TB) leukemia
# Measurement Notes: NCI tumour cell line growth inhibition, 48 h
Measured Metric: TGI

Please fill in: TGI reported for "NC(=O)/C(=C\c1ccncc1)c1cccc2ccccc12" = > 100 µM

Please fill in: TGI reported for "N.N.N.N.O=NN1CCCCCC1(P(=O)([O-])[O-])P(=O)([O-])[O-].[Pt+4].[Pt+4]" = > 100 µM

Please fill in: TGI reported for O=C(O)C1=C(C(=O)Nc2ccccc2)C2C=CC1C2 (configuration not stated) = > 100 µM

Please fill in: TGI reported for "COc1cc2c(F)nccc2cc1C(=O)N[C@@H](c1ccc(F)c(Cl)c1)[C@@H]1C[C@@H](O)CN1" = 5.61 µM

Please fill in: TGI reported for COc1ccc(CC2c3cc(OC)c(OC)c(OC)c3CC[N+]2(C)C)cc1Oc1ccc(CC2c3cc4c(c(OC)c3CC[N+]2(C)C)OCO4)cc1 (configuration not stated) = > 100 µM

Please fill in: TGI reported for "O=c1oc2ccccc2n1P(=O)(n1c(=O)oc2ccccc21)n1c(=O)oc2ccccc21" = > 100 µM

Please fill in: TGI reported for "O=C(Cc1nc2ccccc2s1)Nc1ccc(Cl)cc1" = > 100 µM

Please fill in: TGI reported for CCOC(=O)C1(C#N)C(c2ccccc2)CC(O)(c2ccc([N+](=O)[O-])cc2)C(C(=O)c2ccc([N+](=O)[O-])cc2)C1c1ccccc1 (configuration not stated) = > 100 µM

Please fill in: TGI reported for "Nc1nc(Cl)cc(NCCCCCNc2cc(Cl)nc(N)n2)n1" = > 100 µM

Please fill in: TGI reported for "N=c1oc2c(Br)cc(Br)cc2cc1C(=O)Nc1ccccn1" = > 100 µM

Please fill in: TGI reported for "O=C1/C(=C\c2ccc(F)cc2)CN(C(=O)c2ccc([N+](=O)[O-])cc2)C/C1=C\c1ccc(F)cc1" = > 50.2 µM

Please fill in: TGI reported for "Cc1nn2c(=O)c([N+](=O)[O-])c(/C=C/c3ccco3)nc2s1" = 96.2 µM

Please fill in: TGI reported for "CCN1CCN(c2nc3ccccc3nc2C(=O)c2ccc(OC)cc2)CC1" = > 100 µM

Please fill in: TGI reported for "O=C1CCCC2=C1CC1=C(CCCC1=O)N2c1ccccc1C(=O)O" = > 100 µM

Please fill in: TGI reported for "O=C(NO)c1ccc(OCc2cccc(Cl)c2)cc1" = 20.8 µM

Please fill in: TGI reported for "COc1ccc2oc(=Nc3ccccc3)c(C(N)=O)cc2c1" = > 100 µM

Please fill in: TGI reported for CCOC(=O)N1CC2(C)C=CC1C(C(=O)OC)C2 (configuration not stated) = > 100 µM
